# experiment: Intrinsic clearance in human liver microsomes at 1 uM
# Assay type: ADME
# experimental_setup: read-out: CLH
property: microsomal CLint at 1 µM

Request: // fetch microsomal CLint at 1 µM given entry COc1cccc(OC)c1C1CCCC(=O)N1Cc1ccc2ccccc2c1 (racemic)
Response: > 1250 µL/min/mg

Request: // fetch microsomal CLint at 1 µM given entry COc1cccc(OC)c1C1CCCC(=O)N1Cc1cccc(-c2ccccc2)c1 (racemic)
Response: > 1250 µL/min/mg

Request: // fetch microsomal CLint at 1 µM given entry COc1ccnc(OC)c1C1CCCC(=O)N1Cc1ccc2oc3ccccc3c2c1 (racemic)
Response: 1130 µL/min/mg

Request: // fetch microsomal CLint at 1 µM given entry COc1ccc2nc(C)oc2c1C1CCCC(=O)N1Cc1cccc(-c2csc(C)n2)c1 (racemic)
Response: > 1250 µL/min/mg

Request: // fetch microsomal CLint at 1 µM given entry COc1cccc(OC)c1[C@H]1C[C@H](C)C(=O)N1Cc1ccc(OC(F)(F)F)cc1 (racemic)
Response: 257 µL/min/mg

Request: // fetch microsomal CLint at 1 µM given entry COc1cccc(OC)c1C1CCC(C)C(=O)N1Cc1ccc(OC(F)(F)F)cc1 (mixture of isomers)
Response: 649 µL/min/mg

Request: // fetch microsomal CLint at 1 µM given entry COc1cccc(OC)c1C1CCCC(=O)N1Cc1ccc2ccccc2n1 (single isomer, unassigned)
Response: > 1250 µL/min/mg

Request: // fetch microsomal CLint at 1 µM given entry COc1cccc(OC)c1C1CCCC(=O)N1Cc1cccc(-c2csc(C)n2)c1 (racemic)
Response: > 1250 µL/min/mg

Request: // fetch microsomal CLint at 1 µM given entry COc1cccc(OC)c1C1CCCC(=O)N1Cc1cccc(-c2ccccc2)n1 (racemic)
Response: > 1250 µL/min/mg

* * *

Would you kindly list IC50 for each of these compounds?
# target: Orexin/Hypocretin receptor type 1 (Homo sapiens)
# Sequence (O43613 whole entry): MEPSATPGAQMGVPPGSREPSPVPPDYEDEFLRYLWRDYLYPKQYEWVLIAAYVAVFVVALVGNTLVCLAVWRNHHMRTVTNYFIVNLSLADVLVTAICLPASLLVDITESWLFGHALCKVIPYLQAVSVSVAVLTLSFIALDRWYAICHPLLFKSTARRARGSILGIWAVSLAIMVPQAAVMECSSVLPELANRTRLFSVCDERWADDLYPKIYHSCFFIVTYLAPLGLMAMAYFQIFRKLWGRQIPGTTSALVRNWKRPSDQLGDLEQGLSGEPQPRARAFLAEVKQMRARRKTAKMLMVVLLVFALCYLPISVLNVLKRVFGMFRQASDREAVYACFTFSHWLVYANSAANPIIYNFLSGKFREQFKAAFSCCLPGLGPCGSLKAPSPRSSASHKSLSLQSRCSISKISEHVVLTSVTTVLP
# experiment: Antagonist activity at human orexin 1 receptor expressed in CHO cells assessed as inhibition of orexin-A-induced calcium mobilization by FLIPR assay
Note: unit nM is implicit; provide only the numeric part.

Request: // fetch IC50 given entry COc1cccc(OC)c1C1CCCC(=O)N1Cc1cccc(-c2ccccc2)c1 (racemic)
Response: 65

Request: // fetch IC50 given entry COc1cccc(OC)c1C1CCCC(=O)N1C(C)c1ccc(OC(F)(F)F)cc1 (mixture of isomers)
Response: 142

Request: // fetch IC50 given entry COc1cccc(OC)c1C1SCC(=O)N1Cc1ccc(OC(F)(F)F)cc1 (racemic)
Response: 155
